Source of measurements: patent US20260258084A1

This listing pairs molecules with measured Chemical stability (relative purity loss) Buffer pH 7.4.
- Assay overview: Chemical stability assessment of peptides (relative purity loss)
- Format: physicochemical
- Assay conditions: 50 mM phosphate buffer pH 7.4 + acetonitrile (1:1); 24 hours at 37° C.
Starred links: 1 amine or outer side, 2 acyl side, 3 side chain; linkers in the order of their positions; H or OH if unused. Positions of bridges follow the written chain, without caps; N, C: chain ends. Non-standard residues stand in square brackets, D forms with d. Residues, ends and D or L forms follow the SMILES beside them. *: point of attachment. X3 = CN(CCCCC(=O)N[C@@H](CS[*:2])C(=O)[*:1])[*:3]; αMeLys(Me2) = CN(C)CCCC[C@](C)(N)C(=O)O; X2 = CN(C)[C@@H](CCCCN[*:1])C(=O)[*:2]; 2Nal = N[C@@H](Cc1ccc2ccccc2c1)C(=O)O; AEF = NCCOc1ccc(C[C@H](N)C(=O)O)cc1; 3Pal = N[C@@H](Cc1cccnc1)C(=O)O; NMeN = CN[C@@H](CC(N)=O)C(=O)O; Thp = NC1(C(=O)O)CCOCC1; Me2NCH2CH2 = CN(C)CC*; Aib = CC(C)(N)C(=O)O; Ahx = NCCCCCC(=O)O; Ava = NCCCCC(=O)O; Sar = CNCC(=O)O
# do not omit the unit; it follows the number

- Molecule: "CC(=O)NCCCC[C@@H]1NC(=O)[C@H](Cc2c[nH]c3c(C)cccc23)NC(=O)[C@H]([C@@H](C)O)NC(=O)[C@H](CC(N)=O)NC(=O)[C@@H]2CSSC[C@H](NC1=O)C(=O)N[C@@H](Cc1ccc(OCCN(C)C)cc1)C(=O)N[C@H](Cc1ccc3ccccc3c1)C(=O)NC1(CCOCC1)C(=O)N[C@H](C(=O)N[C@@H](CC(N)=O)C(=O)N[C@@H](Cc1cccnc1)C(=O)N(C)CC(N)=O)CCC(=O)NCCCCC(=O)N2 [compound 35]"
  Meas value: "1.7%"
- Molecule: "CC(=O)NCCCC[C@@H]1NC(=O)[C@H](Cc2c[nH]c3ccccc23)NC(=O)[C@@H](N(C)C)CCCCNC(=O)[C@@H]2CSSC[C@H](NC1=O)C(=O)N[C@@H](Cc1ccc(OCCN(C)C)cc1)C(=O)N[C@@H](Cc1ccc3ccccc3c1)C(=O)N[C@@](C)(CCCCN(C)C)C(=O)N[C@H](C(=O)N[C@@H](CC(N)=O)C(=O)N[C@@H](Cc1cccnc1)C(=O)N(C)CC(N)=O)CCC(=O)NCCCCC(=O)N2 [compound 36] ([Ava]C[X2]WK(Ac)CY(Me2NCH2CH2)[2Nal][αMeLys(Me2)]EN[3Pal][Sar]-NH2; disulfide 2-6; lactam N-10)"
  Meas value: "0.9%"
- Molecule: "CC(=O)N[C@H]1CCCCNC(=O)[C@@H]2CSSC[C@H](NC(=O)[C@H](CCC(N)=O)NC(=O)[C@H](Cc3c[nH]c4ccccc34)NC1=O)C(=O)N[C@@H](Cc1ccc(OCCN)cc1)C(=O)N[C@@H](Cc1ccc3ccccc3c1)C(=O)NC1(CCOCC1)C(=O)N[C@H](C(=O)N[C@@H](CC(N)=O)C(=O)NCC(N)=O)CCC(=O)N(C)CCCCC(=O)N2 [compound 16] (Ac-KWQC[AEF][2Nal][Thp]ENG-NH2; linker 1-4-8 via X3)"
  Meas value: "4.2%"
- Molecule: "COc1ccc(C[C@@H]2NC(=O)[C@@H]3CSSC[C@H](NC(=O)CCCCCNC(=O)C[C@@H](C(=O)N[C@@H](CC(N)=O)C(=O)N[C@@H](CC(N)=O)C(N)=O)NC(=O)C(C)(C)NC(=O)[C@H](Cc4ccc5ccccc5c4)NC2=O)C(=O)N(C)[C@@H](CC(N)=O)C(=O)N[C@@H]([C@@H](C)O)C(=O)N[C@@H](Cc2c[nH]c4ccccc24)C(=O)N[C@@H](CCC(N)=O)C(=O)N3)cc1 [compound 6] ([Ahx]C[NMeN]TWQCY(Me)[2Nal][Aib]DNN-NH2; disulfide 2-7; lactam N-11)"
  Meas value: "3.1%"

Moving on to the next molecule.
Task item: Read the entry C[C@@H](O)[C@@H]1NC(=O)[C@H](CC(N)=O)NC(=O)[C@@H]2CSSC[C@H](NC(=O)[C@H](CCC(N)=O)NC(=O)[C@H](Cc3c[nH]c4ccccc34)NC1=O)C(=O)N[C@@H](Cc1ccc(OCCN)cc1)C(=O)N[C@@H](Cc1ccc3ccccc3c1)C(=O)NC(C)(C)C(=O)N[C@H](C(=O)N[C@@H](CC(N)=O)C(=O)NCC(N)=O)CC(=O)NCCCCCC(=O)N2 [compound 9] ([Ahx]CNTWQC[AEF][2Nal][Aib]DNG-NH2; disulfide 2-7; lactam N-11) and write its reported Chemical stability (relative purity loss) Buffer pH 7.4.
Reply: 19.8%
